- Test system: Micrococcus flavus FDA 16
- assay-notes: Antibacterial MIC, standard serial dilution
- Format: cell-based
- applied-conditions: nutrient agar, 37° C., 17 hours, as free base
experimental-readout: MIC (mg/L)
State the answer as a number, implicitly in mg/L.

compound: CNC[C@@H]1CC[C@@H](N)[C@@H](O[C@H]2[C@H](O)[C@H](N(C)C(=O)CN)[C@@H](OC)C[C@H]2N)O1 [B, istamycin B]
assay-target: Micrococcus flavus FDA 16
experimental-readout: MIC
observed: 12.5

compound: CNCC1CCC(N)C(OC2C(N)CCC(N(C)C(=O)CNC=N)C2O)O1.O.O.O.O.O=S(=O)(O)O.O=S(=O)(O)O (centres unmarked) [DBF, 3-demethoxy-2"-N-formimidoylistamycin B]
assay-target: Micrococcus flavus FDA 16
experimental-readout: MIC
observed: 0.39

compound: CNCC1CCC(N)C(OC2C(N)CCC(N(C)C(=O)CN)C2O)O1 (centres unmarked) [DB, 3-demethoxyistamycin B]
assay-target: Micrococcus flavus FDA 16
experimental-readout: MIC
observed: 3.13

compound: CNCC1CCC(N)C(OC2C(N)CC(O)C(N(C)C(=O)CN)C2O)O1 (centres unmarked) [Demethyl ista B, 3-O-demethylistamycin B]
assay-target: Micrococcus flavus FDA 16
experimental-readout: MIC
observed: 3.13

Then this compound:
Requested field: MIC. Item: CNCC1CCC(N)C(OC2C(N)CC(O)C(N(C)C(=O)CNC=N)C2O)O1 (centres unmarked) [Demethyl formimidoyl ista B, 3-O-demethyl-2"-N-formimidoylistamycin B]
0.39

* * *

- Test system: Staphylococcus aureus Smith
- assay-notes: Antibacterial MIC, standard serial dilution
- Format: cell-based
- applied-conditions: nutrient agar, 37° C., 17 hours, as free base
Below: a set of entries, each annotated with reported MIC.

Examples with their reported MIC follow.
molecule: CNCC1CCC(N)C(OC2C(N)CCC(N(C)C(=O)CN)C2O)O1 (centres unmarked)
observed: 0.20 µg/mL
//
molecule: CNCC1CCC(N)C(OC2C(N)CC(O)C(N(C)C(=O)CN)C2O)O1 (centres unmarked)
observed: 0.39 µg/mL
//
molecule: CNCC1CCC(N)C(OC2C(N)CC(O)C(N(C)C(=O)CNC=N)C2O)O1 (centres unmarked)
observed: < 0.20 µg/mL
//
molecule: CNC[C@@H]1CC[C@@H](N)[C@@H](O[C@H]2[C@H](O)[C@H](N(C)C(=O)CN)[C@@H](OC)C[C@H]2N)O1
observed: 0.39 µg/mL

Now consider the entry below.
Value lookup for MIC; key = CNCC1CCC(N)C(OC2C(N)CCC(N(C)C(=O)CNC=N)C2O)O1.O.O.O.O.O=S(=O)(O)O.O=S(=O)(O)O (centres unmarked)
< 0.20 µg/mL

* * *

Listed below: MIC values for each entry.
- System: Bacillus subtilis PCI 219
- assay-notes: Antibacterial MIC, standard serial dilution
- Format: cell-based
- applied-conditions: nutrient agar, 37° C., 17 hours, as free base
Output spec: scalar in µg/mL, unitless text.

Worked examples follow.
compound: CNCC1CCC(N)C(OC2C(N)CC(O)C(N(C)C(=O)CNC=N)C2O)O1 (centres unmarked) [Demethyl formimidoyl ista B, 3-O-demethyl-2"-N-formimidoylistamycin B]
MIC [µg/mL]: 0.20
--
compound: CNC[C@@H]1CC[C@@H](N)[C@@H](O[C@H]2[C@H](O)[C@H](N(C)C(=O)CN)[C@@H](OC)C[C@H]2N)O1 [B, istamycin B]
MIC [µg/mL]: 0.39
--
compound: CNCC1CCC(N)C(OC2C(N)CC(O)C(N(C)C(=O)CN)C2O)O1 (centres unmarked) [Demethyl ista B, 3-O-demethylistamycin B]
MIC [µg/mL]: 0.39

// MIC lookup, key: CNCC1CCC(N)C(OC2C(N)CCC(N(C)C(=O)CNC=N)C2O)O1.O.O.O.O.O=S(=O)(O)O.O=S(=O)(O)O (centres unmarked) [DBF, 3-demethoxy-2"-N-formimidoylistamycin B]
0.20
